Tested on: L1210 leukemia ip in BDF1 mice, survival T/C
experimental details: NCI In Vivo Anticancer Drug Screen. Data for tumor model L1210 Leukemia (intraperitoneal) in B6D2F1 (BDF1) mice
recorded conditions: endpoint: mean survival time; dose: 200.0 mg/kg/injection; schedule: Q04DX003 (ip); vehicle: saline; higher = longer survival
Inconclusive results and toxic doses are left out.

molecule: COC(=O)Nc1c(C)cc(C)cc1C
T/C: 94 % of control
//
molecule: CC(C)(C)NCc1cc(C(C)(C)C)cc(-c2ccccc2)c1O
T/C: 90 % of control
//
molecule: FC1(F)C(F)(F)C(Cl)(Cl)C1(Cl)Cl
T/C: 96 % of control
//
molecule: CN1CCC2(CC1)SSC1(CCN(C)CC1)S2
T/C: 98 % of control
//
molecule: CCN(CC)CC(=O)NCC(CCN(C)C)(c1cccc2ccccc12)C(C)C (centres undefined)
T/C: 93 % of control
//
molecule: O=Cc1c[nH]c2nccnc12
T/C: 93 % of control
//
molecule: CN1C(=O)CCC1=O
T/C: 98 % of control
//
molecule: CCOc1ccccc1NC(=O)c1cc2ccccc2cc1O
T/C: 102 % of control
//
molecule: Cc1ccc(S(C)(=N)=O)cc1 (centres undefined)
T/C: 98 % of control
//
molecule: CC1(O)Cn2c(nc3nccnc32)S1 (centres undefined)
T/C: 96 % of control
//
molecule: c1ccc2c(c1)CNC2
T/C: 106 % of control
//
molecule: CCCCCCCCCCCC(CCCCCCCC)CCCCCCCC
T/C: 93 % of control
//
molecule: CCCCCCCCSC(C)(C)C
T/C: 101 % of control
//
molecule: CC1(C#N)CCC2c3ccccc3CCC2C1=O (centres undefined)
T/C: 98 % of control

The values you see were collected from PubChem BioAssay AID248.
